# reported activity; entries follow
# testTarget: T1, lambda Beta (Bet) (Bacteriophage lambda, UniProt P03698 P03698:1-261)
# T1 sequence: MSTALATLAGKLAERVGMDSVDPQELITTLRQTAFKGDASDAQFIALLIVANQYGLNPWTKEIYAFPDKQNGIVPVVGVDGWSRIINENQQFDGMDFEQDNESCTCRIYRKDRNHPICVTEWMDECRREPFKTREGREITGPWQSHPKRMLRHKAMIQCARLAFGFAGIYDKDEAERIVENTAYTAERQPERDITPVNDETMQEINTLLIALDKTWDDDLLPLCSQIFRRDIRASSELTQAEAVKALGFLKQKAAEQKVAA
# testDescription: cell_activity; HME9, Exo and Gam co-expressed
# experimentalSetup: tags: expressed from pL of defective prophage in E. coli

For orientation, consider the following solved cases.
- binder: "galK 60-mer oligo (ssDNA) DNA: GCGGTCGGAACCGTATTGCAGCAGCTTTATCATCTGCCGCTGGACGGCGCACAAATCGCG"
  activity: "0.0006 recombinants per viable cell"
- binder: "CCGTATTGCAGCAGCTTTATCATCTGCCGCTGGACGGCGC (ssDNA) [galK 40-mer oligo]"
  activity: "0.0004 recombinants per viable cell"
- binder: "TTGCAGCAGCTTTATCATCTGCCGCTGGAC (ssDNA) [galK 30-mer oligo]"
  activity: "4.7e-05 recombinants per viable cell"

May I ask what activity has been recorded for CGGAACCGTATTGCAGCAGCTTTATCATCTGCCGCTGGACGGCGCACAAA (ssDNA) [galK 50-mer oligo] ? 0.0004 recombinants per viable cell

May I ask what activity has been recorded for GCAGCTTTATCATCTGCCGC (ssDNA) [galK 20-mer oligo] ? 1e-06 recombinants per viable cell

// provenance: patent US20030224521
